Entry source: patent US12215173B2

Exercise: state measured EC50 for each of the compounds provided.
# TARGET OF ASSAY: Opioid Kappa Receptor (recombinant human, HEK293 cells) (Homo sapiens (Human))
# PROCEDURE SUMMARY: cell-based
# SETTINGS: read-out: EC50
Square brackets hold non-standard residues; d marks the D form. Peptide text beside a SMILES is read from it. * marks the point of attachment. Piperidin1yl(4-NH2,4-CO2Me) = COC(=O)C1(N)CCN(*)CC1; Pyrrolidinyl(3-NH2,3-CO2Me) = COC(=O)C1(N)CCN(*)C1; Piperidin1yl(4-NH2,4-COOH) = NC1(C(=O)O)CCN(*)CC1; Pyrrolidino(3-NH2-3-COOH) = NC1(C(=O)O)CCN(*)C1; dAla(cPr) = N[C@H](CC1CC1)C(=O)O; dTic = O=C(O)[C@H]1Cc2ccccc2CN1
Number only, in µM; omit the unit.

Inquiry: Can you look up the measured EC50 of CC(C)C[C@@H](NC(=O)[C@@H](Cc1ccccc1)NC(=O)[C@H]1Cc2ccccc2CN1)C(=O)N[C@H](CCCCN)C(=O)N1CCC(N)(C(=O)O)C1 (stereo partly drawn) [Compound 169] (H-[dTic][dF][dL][dK]-{Pyrrolidino(3-NH2-3-COOH)}) for me?
Reply text: 0.167

Inquiry: Bench note: what EC50 did CC(C)C[C@@H](NC(=O)[C@@H](Cc1ccccc1)NC(=O)[C@H](N)Cc1ccccc1)C(=O)N[C@H](CCCCN)C(=O)N1CCC(NC(=O)C(=O)O)CC1 show?
Reply text: 0.00477

Inquiry: # get_value(readout='EC50', item= CC(C)C[C@@H](NC(=O)[C@@H](Cc1ccccc1)NC(=O)[C@H](N)Cc1ccccc1)C(=O)N[C@H](CCCCN)C(=O)NCCOCCO )
Reply text: 0.00515

Inquiry: So what does the record say about EC50 for COC(=O)C1(N)CCN(C(=O)[C@@H](CCCCN)NC(=O)[C@@H](CC(C)C)NC(=O)[C@@H](Cc2ccccc2)NC(=O)[C@H](N)Cc2ccccc2)C1 (stereo partly shown) ?
Reply text: 0.00296

Inquiry: What does the record list as EC50 for COC(=O)C1(N)CCN(C(=O)[C@@H](CCCCN)NC(=O)[C@@H](CC2CC2)NC(=O)[C@@H](Cc2ccccc2)NC(=O)[C@H](N)Cc2ccccc2)CC1 [Compound 112] (H-[dF][dF][dAla(cPr)][dK]-{Piperidin1yl(4-NH2,4-CO2Me)}) ?
Reply text: 0.00595

Inquiry: Using the record for CNC(=O)C(=O)N1CCC(NC(=O)[C@@H](CCCCN)NC(=O)[C@@H](CC(C)C)NC(=O)[C@@H](Cc2ccccc2)NC(=O)[C@H](N)Cc2ccccc2)CC1 , report its EC50.
Reply text: 0.0265

Inquiry: Reported EC50, compound CC(C)C[C@@H](NC(=O)[C@@H](Cc1ccccc1)NC(=O)[C@H](N)Cc1ccccc1)C(=O)N[C@H](CCCCN)C(=O)NCc1cc[nH]c(=O)c1 : ____
Reply text: 0.0181

Inquiry: Quick one: EC50 for COC(=O)C1(N)CCN(C(=O)[C@@H](CCCCN)NC(=O)[C@@H](CC(C)C)NC(=O)[C@@H](Cc2ccccc2)NC(=O)[C@H](N)Cc2ccc(F)cc2)C1 (stereo partly shown) ?
Reply text: 0.0087

Inquiry: Request the reported EC50 associated with CC(C)C[C@@H](NC(=O)[C@@H](Cc1ccccc1)NC(=O)[C@H](N)Cc1ccccc1)C(=O)N[C@H](CCCCN)C(=O)NCC(=O)N1CCC(N)(C(=O)O)CC1 [Compound 67] (H-[dF][dF][dL][dK]G-{Piperidin1yl(4-NH2,4-COOH)})
Reply text: 0.0515

Inquiry: Given CC(C)C[C@@H](NC(=O)[C@@H](Cc1ccccc1)NC(=O)[C@H](N)Cc1ccccc1)C(=O)N[C@H](CCCCN)C(=O)N1CCC2(CC1)NC(=O)NC2=O , state its recorded EC50.
Reply text: 0.0054

Inquiry: State the recorded EC50 for this entry: CC(C)C[C@@H](NC(=O)[C@@H](Cc1ccccc1)NC(=O)[C@H](N)Cc1ccccc1)C(=O)N[C@H](CCCCN)C(=O)N1CCN(C(=O)N(C)C)CC1
Reply text: 0.0143

Inquiry: Consider the compound shown here: N=C(N)NCCC[C@@H](NC(=O)[C@@H](CC1CC1)NC(=O)[C@@H](Cc1ccccc1)NC(=O)[C@H](N)Cc1ccccc1)C(=O)N1CCC(N)(C(=O)O)C1 (stereo partly shown) [Compound 134] (H-[dF][dF][dAla(cPr)][dR]-{Pyrrolidino(3-NH2-3-COOH)}) What is its recorded EC50?
Reply text: 0.0126

Inquiry: Please report the recorded EC50 for COC(=O)C(=O)NC1CCN(C(=O)[C@@H](CCCCN)NC(=O)[C@@H](CC(C)C)NC(=O)[C@@H](Cc2ccccc2)NC(=O)[C@H](N)Cc2ccccc2)CC1 .
Reply text: 0.0155

Inquiry: Recorded EC50 for CC(C)C[C@@H](NC(=O)[C@@H](Cc1ccccc1)NC(=O)[C@H](N)Cc1ccccc1)C(=O)N[C@H](CCCCN)C(=O)N1CCC(NC(=O)/C=C\C(=O)NC(N)=O)CC1 , please?
Reply text: 0.0151

Inquiry: For the compound CC(C)C[C@@H](NC(=O)[C@@H](Cc1ccccc1)NC(=O)[C@H](N)Cc1ccccc1)C(=O)N[C@H](CCCCN)C(=O)N1CCC(N)(C(=O)OC2CC2)C1 (stereo partly shown) , what EC50 is on record?
Reply text: 0.0119

Inquiry: So what does the record say about EC50 for COC(=O)C1(N)CCN(C(=O)[C@@H](CCCNC(=N)N)NC(=O)[C@@H](CC2CC2)NC(=O)[C@@H](Cc2ccccc2)NC(=O)[C@H](N)Cc2ccccc2)C1 (stereo partly shown) [Compound 133] (H-[dF][dF][dAla(cPr)][dR]-{Pyrrolidinyl(3-NH2,3-CO2Me)}) ?
Reply text: 0.00964

Inquiry: Report EC50 for CC(C)C[C@@H](NC(=O)[C@@H](Cc1ccccc1)NC(=O)[C@H](N)Cc1ccccc1)C(=O)N[C@H](CCCCN)C(=O)NCCC[C@H](N)C(=O)O please.
Reply text: 0.00475

Inquiry: Consider the compound shown here: COC(=O)C1(N)CCN(C(=O)[C@@H](CCCCN)NC(=O)[C@@H](CC2CC2)NC(=O)[C@@H](Cc2ccccc2)NC(=O)[C@H](N)Cc2ccccc2)C1 (stereo partly shown) [Compound 118] (H-[dF][dF][dAla(cPr)][dK]-{Pyrrolidinyl(3-NH2,3-CO2Me)}) What is its recorded EC50?
Reply text: 0.00931

Inquiry: Find the recorded EC50 belonging to CC(C)C[C@@H](NC(=O)[C@@H](Cc1ccccc1)NC(=O)[C@H](N)Cc1ccccc1)C(=O)N[C@H](CCCCN)C(=O)N1CCC(NC(=O)CNC(N)=O)CC1 and report it.
Reply text: 0.0204
